Origin of values: patent US20250295799A1

Target: T1, human glypican-3 (GPC3) (human, UniProt P51654 25-554)
T1 construct: Endogenous on JHH-7, JHH-5, HepG2 and NCI-H446 tumour cells, or transiently expressed on CHO-S cells from a pTT5 plasmid; also called hGPC3; huGPC3
Assay: flow cytometry on JHH-7 cells; antibody after 14 days in mouse plasma at 37 C
Some binders, each annotated with its measured Bmax (MFI).
Don't forget the unit after the number, please.

H18L6_LC_G34A mAb, v40212 (antibody, human IgG1, kappa, V domains shown, M3-H18L6 chains with the stated light chain point mutation, IgG1/kappa) VH: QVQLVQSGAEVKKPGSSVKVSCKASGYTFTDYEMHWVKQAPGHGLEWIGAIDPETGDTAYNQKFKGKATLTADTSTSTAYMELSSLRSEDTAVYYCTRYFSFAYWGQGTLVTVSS VL: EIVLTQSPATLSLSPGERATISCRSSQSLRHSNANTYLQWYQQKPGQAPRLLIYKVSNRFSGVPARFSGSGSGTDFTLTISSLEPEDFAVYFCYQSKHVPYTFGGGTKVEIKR ... 11300 MFI
H18L6_LC_G34K mAb, v40207 (antibody, human IgG1, kappa, V domains shown, Full-size IgG1/kappa) VH: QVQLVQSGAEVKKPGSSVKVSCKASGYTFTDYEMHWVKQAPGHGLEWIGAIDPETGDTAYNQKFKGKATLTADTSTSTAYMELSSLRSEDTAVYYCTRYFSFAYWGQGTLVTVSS VL: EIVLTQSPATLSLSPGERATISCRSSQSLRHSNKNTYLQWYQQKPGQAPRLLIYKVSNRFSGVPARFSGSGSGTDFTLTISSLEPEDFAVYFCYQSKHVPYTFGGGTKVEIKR ... 10900 MFI

Next:
Lookup: Need Bmax (MFI) of H18L6_LC_G34Q mAb, v40208 (antibody, human IgG1, kappa, V domains shown, Full-size IgG1/kappa) VH: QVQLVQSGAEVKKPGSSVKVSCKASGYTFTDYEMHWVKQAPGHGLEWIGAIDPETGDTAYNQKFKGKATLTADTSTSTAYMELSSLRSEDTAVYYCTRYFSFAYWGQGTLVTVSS VL: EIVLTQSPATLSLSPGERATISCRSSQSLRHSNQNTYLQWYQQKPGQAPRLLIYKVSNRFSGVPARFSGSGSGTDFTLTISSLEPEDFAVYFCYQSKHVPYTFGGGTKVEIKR , thanks.
Found: 11000 MFI
